Attribution: patent US20210355194A1

# SUBJECT OF TEST: T1, Acro SARS-CoV-2 (COVID-19) S1 protein (SARS-CoV-2, UniProt P0DTC2 16-685)
# T1 construct: also called SARS-CoV-2 S1
# ASSAY: SPR
I'd appreciate it if you could supply Kd values for the items below.
Answers are plain numbers, in nM.

The cases that follow already have their Kd on record.
variant 6-44 (Fc fusion) VHH: EVQLVESGGGLVQPGGSLRLSCAASGGTFGVYHMGWFRQAPGKEREFIGRITWTDGSTYYADSVKGRFTISADNSKNTAYLQMNSLKPEDTAVYYCFGLLEVYDMTFDYWGQGTLVTVSS	8.2
variant 5-1 (Fc fusion, VHH-Fc) VHH: EVQLVESGGGLVQPGGSLRLSCAASGGTFSSIGMGWFRQAPGKEREFVAAISWDGGATAYADSVKGRFTISADNSKNTAYLQMNSLKPEDTAVYYCAKEDVGKPFDWGQGTLVTVSS	15.1
variant 6-5 (Fc fusion) VHH: EVQLVESGGGLVQPGGSLRLSCAASGRTFTMGWFRQAPGKEREFVASTNSAGSTNYADSVNGRFTISADNSKNTAYLQMNSLKPEDTAVYYCTTVDQYFDYWGQGTLVTVSS	24.9

Each binder below has a reported value. Please supply its Kd.
1. variant 5-29 (Fc fusion) VHH: EVQLVESGGGLVQPGGSLRLSCAASGFTFDDYPMGWFRQAPGKEREGVASVLRGGYTWYADSVKGRFTISADNSKNTAYLQMNSLKPEDTAVYYCAKDWATGLAWGQGTLVTVSS
2. variant 6-78 (Fc fusion, VHH-Fc) VHH: EVQLVESGGGLVQPGGSLRLSCAASGRTYDAMGWFRQAPGKEREFVASVTSGGYTHYADSVKGRFTISADNSKNTAYLQMNSLKPEDTAVYYCAKFGRKIVGATELDYWGQGTLVTVSS

Given back:
42.4
18.9

Quick batch: Kd for everything below.
1. variant 5-32 (Fc fusion) VHH: EVQLVESGGGLVQPGGSLRLSCAASGFTPDNYAMGWFRQAPGKEREFVAALGWSGVTTYHYYADSVKGRFTISADNSKNTAYLQMNSLKPEDTAVYYCASDESDAANWGQGTLVTVSS
2. variant 6-24 (Fc fusion) VHH: EVQLVESGGGLVQPGGSLRLSCAASGFTLDYYAMGWFRQAPGKEREFVAAINWSGDNTHYADSVKGRFTISADNSKNTAYLQMNSLKPEDTAVYYCARAPFYCTTTKCQDNYYYMDVWGQGTLVTVSS
3. variant 6-3 (Fc fusion, VHH-Fc) VHH: EVQLVESGGGLVQPGGSLRLSCAASGFTFSPSWMGWFRQAPGKEREFVATINEYGGRNYADSVKGRFTISADNSKNTAYLQMNSLKPEDTAVYYCARVDRDFDYWGQGTLVTVSS

Given back:
22.4
29.9
12.4
